Listed here: compounds with reported pKi for Muscarinic acetylcholine receptor M4 (Homo sapiens).
pKi: −log10 of the molar value.
Measured attribute: pKi

compound="C[C@H]1OC[C@@H](C[N+](C)(C)C)O[C@@H]1C.[I-] (relative stereo)" cmp=< numeric_result=4.00
compound="C[C@@H]1O[C@H](C[N+](C)(C)C)CO[C@@H]1C.[I-] (relative stereo)" cmp=< numeric_result=4.00
compound="C[C@@H]1OC[C@@H](C[N+](C)(C)C)O[C@@H]1C.[I-] (relative stereo)" cmp=< numeric_result=4.00
compound="C[C@H]1OC[C@@H](C[N+](C)(C)C)OC1(C)C.[I-] (relative stereo)" cmp== numeric_result=4.59
compound=CC1(C)CO[C@H](C[N+](C)(C)C)CO1.[I-] cmp=< numeric_result=4.00
compound="C[C@H]1O[C@H](C[N+](C)(C)C)COC1(C)C (relative stereo)" cmp== numeric_result=4.06
compound="C[C@H]1CO[C@H](C[N+](C)(C)C)CO1.[I-] (relative stereo)" cmp=< numeric_result=4.00
compound=CC1(C)COC[C@@H](C[N+](C)(C)C)O1.[I-] cmp== numeric_result=4.35
compound=C[C@@H]1COC[C@@H](C[N+](C)(C)C)O1.[I-] cmp== numeric_result=4.06

---

Listed here: compounds with reported pKi for Muscarinic acetylcholine receptor M5 (Homo sapiens).
pKi: −log10 of the molar value.
Measured attribute: pKi

compound=CC1(C)CO[C@H](C[N+](C)(C)C)CO1.[I-] measured_attribute=pKi result="< 4.00"
compound="C[C@H]1OC[C@@H](C[N+](C)(C)C)O[C@@H]1C.[I-] (relative stereo)" measured_attribute=pKi result="< 4.00"
compound="C[C@@H]1OC[C@@H](C[N+](C)(C)C)O[C@@H]1C.[I-] (relative stereo)" measured_attribute=pKi result="< 4.00"

---

target: Muscarinic acetylcholine receptor M3 (Homo sapiens)
Sequence (P20309 whole entry): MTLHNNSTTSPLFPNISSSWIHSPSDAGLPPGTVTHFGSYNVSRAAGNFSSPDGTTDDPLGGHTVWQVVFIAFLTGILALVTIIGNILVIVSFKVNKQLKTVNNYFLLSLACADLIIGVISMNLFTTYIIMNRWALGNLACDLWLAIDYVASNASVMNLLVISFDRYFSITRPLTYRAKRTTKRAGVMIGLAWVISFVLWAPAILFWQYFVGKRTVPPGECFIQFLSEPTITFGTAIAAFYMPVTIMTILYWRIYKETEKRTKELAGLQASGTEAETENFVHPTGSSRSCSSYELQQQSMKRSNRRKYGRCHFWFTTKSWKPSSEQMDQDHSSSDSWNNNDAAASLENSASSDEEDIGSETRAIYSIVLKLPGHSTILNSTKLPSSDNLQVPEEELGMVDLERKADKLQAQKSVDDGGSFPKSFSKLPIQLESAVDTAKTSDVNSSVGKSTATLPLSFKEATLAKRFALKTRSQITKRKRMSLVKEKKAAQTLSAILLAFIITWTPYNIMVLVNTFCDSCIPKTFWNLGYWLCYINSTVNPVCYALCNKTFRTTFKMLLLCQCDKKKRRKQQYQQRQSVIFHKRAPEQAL
Each item that follows carries a reported Ki.
Measured attribute: Ki

compound="C[C@@H]1OC[C@@H](C[N+](C)(C)C)O[C@@H]1C.[I-] (relative stereo)" measured_attribute=Ki result="> 100 µM"
compound="C[C@@H]1O[C@H](C[N+](C)(C)C)CO[C@@H]1C.[I-] (relative stereo)" measured_attribute=Ki result="> 100 µM"
compound="C[C@H]1OC[C@@H](C[N+](C)(C)C)O[C@@H]1C.[I-] (relative stereo)" measured_attribute=Ki result="> 100 µM"
